Measurement Protocol: amyloid nucleation score (Sup35N fusion, yeast selection) (log enrichment); library NNK3; higher = more nucleation; inactive = no reads after selection;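 further: zero at mode of non-aggregating sequences after 7 days selection at 30°C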
Assay Readout: amyloid nucleation score

Solved cases (5 shown):
1. SRSLLEAWDHGTHAGLHVWS inactive
2. YRCDVFFLSVVVDSNFIDKL 2.83
3. VRTDYWVGYVIFYHIVSRGL inactive
4. MIFSTYNNLLWLKSLQSTGG inactive
5. RQLFWPTPINNFSVVNGILL inactive

The following sequences each have a reported value; give each one's amyloid nucleation score.
1. QLCGLAAWDFFCLVGHILKK
2. CFYLDQSRFRSA
3. EGSEGSDMSRTFFYICYFIL

1. 1.23
2. inactive
3. inactive

---

Would you mind telling me the reported amyloid nucleation score of each entry?
Measurement Protocol: amyloid nucleation score (Sup35N fusion, yeast selection) (log enrichment); library NNK2; higher = more nucleation; inactive = no reads after selection
Numbers only.

Solved cases (2 shown):
1. SFFQSVMPYHLVYLGQILLN -1.25
2. PLYPLCSHPYVGFVTHTISR -0.053

The following substances each have a reported value; give each one's amyloid nucleation score.
1. KRLTPS
2. YCYLMMEAWHMEANWYHCFV
3. GVEQFFGRSSAVHL
4. CGFFKVRENGFCGFKKMSFS
5. QKHPGFKYHQNLRLVSLSKR

0.155
-0.209
-0.341
-1.12
-0.837

The following substances each have a reported value; give each one's amyloid nucleation score.
1. VLVTRIEWMGESTCMSLVNY
2. WLIKPVAPLSVYWSVWWSVV
3. GASRVAPVCQTTKSLKCMAK
4. TMWYIGKITRPSLRAGSGFT
5. QMVGWSMYWIKVMRISA
6. GRGERCKGSKIGCSRKAKID
7. PLTNSNRPGMKHLSSKQSSV

2.69
0.3
-1.17
-1.16
0.105
0.98
0.138

---

Measurement Protocol: amyloid nucleation score (Sup35N fusion, yeast selection) (log enrichment); library NNK2; higher = more nucleation; inactive = no reads after selection
Assay Readout: amyloid nucleation score
Answers are plain numbers.

Solved cases (2 shown):
1. TYVYKYLFWSIPCMA 0.715
2. NSIESNSCKWVRNVCTANSG -0.587

The following substances each have a reported value; give each one's amyloid nucleation score.
1. TGVCPR
2. IVGELVMTFKSVMAARTPFH
3. FQDLDLVHRLHSVSVNLETE
4. FCFSLCWDIFNVLSVFGYNF

1. -0.674
2. 4.19
3. 0.123
4. -0.793

The following substances each have a reported value; give each one's amyloid nucleation score.
1. LRYVVNPF
2. HNYGNPWE
3. GPMRGC
4. NGQYDDTG

1: -0.979; 2: 3; 3: -0.548; 4: 2.32

---

Measurement Protocol: amyloid nucleation score (Sup35N fusion, yeast selection) (log enrichment); library NNK3; higher = more nucleation; inactive = no reads after selection
Would you mind telling me the reported amyloid nucleation score of each entry?
One number for each entry.

Solved cases (3 shown):
1) YGSIRLNMYWFVCVCTISWI 0.661
2) SDVDDKVHKVHQQLVAILHF 0.624
3) VFFSWPMARKCEGSEDHPNF 0.005

Consider the additional sequence presented here.
Report amyloid nucleation score for `MEYSRVVAL` please.
-0.421

---

Measurement Protocol: amyloid nucleation score (Sup35N fusion, yeast selection) (log enrichment); library NNK2; higher = more nucleation; inactive = no reads after selection
Would you please tag the item true when its amyloid nucleation score is 0.2 or above, and false when it is below?

1) HVHGMYSGWCYDKTGQEKGM true

Threshold query (amyloid nucleation score >= 0.2) on `IDLSTMTAGTCISYCVYCRI`
true

Threshold query (amyloid nucleation score >= 0.2) on `VRKRNVFFSSSFSSQRSGNC`
false

Threshold query (amyloid nucleation score >= 0.2) on `VRLVNAVNRRTKIHDIYLRV`
true

---

Would you mind telling me the reported amyloid nucleation score of each entry?
Measurement Protocol: amyloid nucleation score (Sup35N fusion, yeast selection) (log enrichment); library NNK2; higher = more nucleation; inactive = no reads after selection

1. VLSCCIPKKNSYWTVTDQPC 8.27

The following sequences each have a reported value; give each one's amyloid nucleation score.
1. VIKTFVILDVYAGLSCQC
2. WSGLNSNRSVDNPSISTGWS
3. NSNGTFGQCLVM
4. FNFGNDGYSFNIILWYQRYI
5. IRGDNWMVCTTYTNSSFLRS
6. SHGAWTLFLSVIFCSAQYR
7. VCQLQYILRNMLDKTRVSQD
8. AVRELVYDLLASKNFWTSNA

[1.25, -0.532, -0.293, 6.61, 0.215, 4.06, 0.912, 0.932]

---

Measurement Protocol: amyloid nucleation score (Sup35N fusion, yeast selection) (log enrichment); library NNK2; higher = more nucleation; inactive = no reads after selection
Our labelling divides records by amyloid nucleation score into ranges: low (below -0.08), medium (-0.08 to below 1), high (1 or more)

1. LCSKGYIMRSAGCRVDCSGV low
2. QWIWSHSNHNSWIPGSGVVD low
3. LPQMNMGFLGSLNFEGMKRA high
4. LSPYYSLCVSGSTWSAVQPL medium

Pick a category. Item: `LEAMVTITT`
medium

Pick a category. Item: `GLLSCMPCRGINLLPSVIRR`
high

---

Measurement Protocol: amyloid nucleation score (Sup35N fusion, yeast selection) (log enrichment); library NNK1; higher = more nucleation; inactive = no reads after selection
Assay Readout: amyloid nucleation score
One number for each entry.

Solved cases (4 shown):
1) RDIRWITQEADGYLELRHSF -0.085
2) ASFRNRPCVQCPGLCILRLS 0.002
3) LIYFKGSS 0.399
4) KVIRAGHDVVPRTYRRRSRR 1.29

The following sequences each have a reported value; give each one's amyloid nucleation score.
1. IYPILVMSASQA
2. GCFMLSSGLGISEPGSFWWG
3. LPFMTHVHVLSRQKTKVKGR
4. CKTGGFYRSVGRTTRFCHVE

0.549
0.224
-0.041
-0.321

The following sequences each have a reported value; give each one's amyloid nucleation score.
1. STSILGANFALVWSEVVTVS
2. LTNGAVGVTFAQNVWPFYAN
3. RWLPPLRVRIRDHTHIITDK

1: -0.023; 2: 3.67; 3: 2.22

The following sequences each have a reported value; give each one's amyloid nucleation score.
1. CAKLCKASHSVFIDDRRCVR
2. TTLVLTADLAVNPRRWWTMI
3. VGTFTTELKVVGRIDIVWAR
4. CANGLLRDLVQAI

1: -1.02; 2: 0.373; 3: 0.723; 4: 0.547

---

Measurement Protocol: amyloid nucleation score (Sup35N fusion, yeast selection) (log enrichment); library NNK3; higher = more nucleation; inactive = no reads after selection
Assay Readout: amyloid nucleation score

Solved cases (8 shown):
1. RVGSACNRNSLRKESCTPVQ inactive
2. ANDGAHFFIIQLECHAEEVR -0.303
3. VFFFMNQSRRDRIE 1.72
4. SGFDYV inactive
5. IIISSFSDWCYFGRDDSCRM -0.36
6. QKESYHY inactive
7. FEYLSMYELGISVE inactive
8. SMVFLASLY inactive

Consider the additional substance presented here.
Report amyloid nucleation score for `NCGRNRNPPTESCPEVGPRL` please.
inactive

---

Measurement Protocol: amyloid nucleation score (Sup35N fusion, yeast selection) (log enrichment); library NNK3; higher = more nucleation; inactive = no reads after selection
Assay Readout: amyloid nucleation score

Solved cases (8 shown):
1. VTFTHKEHGRPNTRSFTKYL inactive
2. TVPIILVSTVRANMFFETRN 1.54
3. AVTSLDVGFYV inactive
4. FWAYERVGSRSAFGWLGREA 0.705
5. GNVIMLLVTLASGCIPLSSE inactive
6. ANTGFLLSWNGFLLMCLELD inactive
7. GHKVSSIDNHFPILSSEAFK inactive
8. NRRYFVELCGGNFM inactive

The following sequences each have a reported value; give each one's amyloid nucleation score.
1. LFIMFCFGIRCLEPDIRHCY
2. IWTTPHVCPNLMMSARGCRL
3. VPCTWDLFYIGRSMWWFLTM
4. SYCGSSASSASTLEIRYTLA
5. EKFMPHTELLNVWGLRQILM
6. ATFYSFLRFKQINNRNNEAF
7. FVYSMKSCSYRDLGLNSYLL
8. FKRGTCISSSNYNIYCYWKC

["inactive", "inactive", "inactive", 0.875, "inactive", "inactive", "inactive", "inactive"]

---

Would you mind telling me the reported amyloid nucleation score of each entry?
Measurement Protocol: amyloid nucleation score (Sup35N fusion, yeast selection) (log enrichment); library NNK3; higher = more nucleation; inactive = no reads after selection
Answers are plain numbers.

Solved cases (7 shown):
1) RLVNVNDTGVLDVSVITRCS 0.207
2) VQRGSTALVFDVSTSIFMNI 1.57
3) ITWSFTVDMDALCCGPWNVR 3.18
4) VFLHVWCGRVGKL -0.089
5) LSFSLWNLEYIEISRRNLTL 1.2
6) MYLITGAFLCIHQHG 1.71
7) GMLPTGRYDRAYSFWGNWRR 1.08

Consider the additional substance presented here.
Report amyloid nucleation score for `HSATASFHAADWSLKFMDGP` please.
0.326
